- experiment summary: solvent given as SMILES
- settings: in CN(C)C=O
Lab note: anything with solvation free energy, 298 K at or over -4 kcal/mol counts as class 1; the rest go in class 0.

Decide: is the reported value of solvation free energy, 298 K for S=C=S equal to or greater than -4 kcal/mol?
class 1

Decide: is the reported value of solvation free energy, 298 K for Cc1ccccc1 equal to or greater than -4 kcal/mol?
class 0

Decide: is the reported value of solvation free energy, 298 K for COC equal to or greater than -4 kcal/mol?
class 1

Decide: is the reported value of solvation free energy, 298 K for C=CCCC equal to or greater than -4 kcal/mol?
class 1

Decide: is the reported value of solvation free energy, 298 K for CN equal to or greater than -4 kcal/mol?
class 1

Decide: is the reported value of solvation free energy, 298 K for CCCC(C)C equal to or greater than -4 kcal/mol?
class 1

Decide: is the reported value of solvation free energy, 298 K for CCCCCCC(C)=O equal to or greater than -4 kcal/mol?
class 0

Decide: is the reported value of solvation free energy, 298 K for FC(F)=CCl equal to or greater than -4 kcal/mol?
class 1

Decide: is the reported value of solvation free energy, 298 K for c1ccc2c(c1)-c1cccc3cccc-2c13 equal to or greater than -4 kcal/mol?
class 0

Decide: is the reported value of solvation free energy, 298 K for C1CCCCCC1 equal to or greater than -4 kcal/mol?
class 1

Decide: is the reported value of solvation free energy, 298 K for Clc1ccccc1 equal to or greater than -4 kcal/mol?
class 0

Decide: is the reported value of solvation free energy, 298 K for CNC equal to or greater than -4 kcal/mol?
class 1

Decide: is the reported value of solvation free energy, 298 K for CC(C)CC(C)C equal to or greater than -4 kcal/mol?
class 1

Decide: is the reported value of solvation free energy, 298 K for C=CCCCCC equal to or greater than -4 kcal/mol?
class 1

Decide: is the reported value of solvation free energy, 298 K for CCCCCCCCCCCCCCCCCCCCC equal to or greater than -4 kcal/mol?
class 0

Decide: is the reported value of solvation free energy, 298 K for O=C(O)c1cc([N+](=O)[O-])cc([N+](=O)[O-])c1 equal to or greater than -4 kcal/mol?
class 0

Decide: is the reported value of solvation free energy, 298 K for CN1C(C(=O)Nc2ccccn2)=C(O)c2ccccc2S1(=O)=O equal to or greater than -4 kcal/mol?
class 0

Decide: is the reported value of solvation free energy, 298 K for CC=CCC equal to or greater than -4 kcal/mol?
class 1

Decide: is the reported value of solvation free energy, 298 K for C1=CCCCCC1 equal to or greater than -4 kcal/mol?
class 0

Decide: is the reported value of solvation free energy, 298 K for CC(C)OC(C)C equal to or greater than -4 kcal/mol?
class 1

Decide: is the reported value of solvation free energy, 298 K for OCC(F)(F)F equal to or greater than -4 kcal/mol?
class 0

Decide: is the reported value of solvation free energy, 298 K for S equal to or greater than -4 kcal/mol?
class 1

Decide: is the reported value of solvation free energy, 298 K for CCCCCCCCCCCCCCCCCCCCCCCC equal to or greater than -4 kcal/mol?
class 0

Decide: is the reported value of solvation free energy, 298 K for C1CCCC1 equal to or greater than -4 kcal/mol?
class 1

Decide: is the reported value of solvation free energy, 298 K for Brc1ccccc1 equal to or greater than -4 kcal/mol?
class 0

Decide: is the reported value of solvation free energy, 298 K for O=C(O)c1ccc([N+](=O)[O-])cc1 equal to or greater than -4 kcal/mol?
class 0

Decide: is the reported value of solvation free energy, 298 K for C#CC equal to or greater than -4 kcal/mol?
class 1

Decide: is the reported value of solvation free energy, 298 K for CN(C)C equal to or greater than -4 kcal/mol?
class 1

Decide: is the reported value of solvation free energy, 298 K for C=CCC equal to or greater than -4 kcal/mol?
class 1

Decide: is the reported value of solvation free energy, 298 K for CC(C)Cc1ccc(C(C)C(=O)O)cc1 (centres undefined) equal to or greater than -4 kcal/mol?
class 0

Decide: is the reported value of solvation free energy, 298 K for CC(C)(C)Cl equal to or greater than -4 kcal/mol?
class 1

Decide: is the reported value of solvation free energy, 298 K for CCCCCCCCCCCCCCCCCCCCCCCCCC equal to or greater than -4 kcal/mol?
class 0

Decide: is the reported value of solvation free energy, 298 K for O=C=O equal to or greater than -4 kcal/mol?
class 1

Decide: is the reported value of solvation free energy, 298 K for CC(C)CC(C)(C)C equal to or greater than -4 kcal/mol?
class 1

Decide: is the reported value of solvation free energy, 298 K for CCCO equal to or greater than -4 kcal/mol?
class 0

Decide: is the reported value of solvation free energy, 298 K for FS(F)(F)(F)(F)F equal to or greater than -4 kcal/mol?
class 1

Decide: is the reported value of solvation free energy, 298 K for CCC(C)C equal to or greater than -4 kcal/mol?
class 1

Decide: is the reported value of solvation free energy, 298 K for Fc1ccccc1 equal to or greater than -4 kcal/mol?
class 0

Decide: is the reported value of solvation free energy, 298 K for CCF equal to or greater than -4 kcal/mol?
class 1

Decide: is the reported value of solvation free energy, 298 K for C=CCCCCCCCC equal to or greater than -4 kcal/mol?
class 0

Decide: is the reported value of solvation free energy, 298 K for COC(=O)c1ccc([N+](=O)[O-])cc1 equal to or greater than -4 kcal/mol?
class 0

Decide: is the reported value of solvation free energy, 298 K for C=C(C)C(=C)C equal to or greater than -4 kcal/mol?
class 1

###

For each entry below, report its solvation free energy, 298 K value.
- experiment summary: solvent given as SMILES
- settings: in O=CN1CCOCC1
Reply with a number, then the unit it belongs to.

Kindly note the recorded solvation free energy, 298 K for CC(C)CC(C)(C)C , which is -2.44 kcal/mol

Kindly note the recorded solvation free energy, 298 K for CCC(=O)CC , which is -4.45 kcal/mol

Kindly note the recorded solvation free energy, 298 K for c1ccccc1 , which is -4.02 kcal/mol

Kindly note the recorded solvation free energy, 298 K for C=CCCC , which is -1.84 kcal/mol

Kindly note the recorded solvation free energy, 298 K for CCCC=O , which is -3.94 kcal/mol

Kindly note the recorded solvation free energy, 298 K for CCCC(=O)OCC , which is -4.61 kcal/mol

Kindly note the recorded solvation free energy, 298 K for Cc1ccc(C)cc1 , which is -4.98 kcal/mol

Kindly note the recorded solvation free energy, 298 K for COC(C)=O , which is -3.58 kcal/mol

Kindly note the recorded solvation free energy, 298 K for CCCO , which is -5.02 kcal/mol

Kindly note the recorded solvation free energy, 298 K for c1ccsc1 , which is -4.39 kcal/mol

Kindly note the recorded solvation free energy, 298 K for CC(C)CO , which is -5.3 kcal/mol

Kindly note the recorded solvation free energy, 298 K for Cc1ccccc1C , which is -5.27 kcal/mol

Kindly note the recorded solvation free energy, 298 K for C=CCCCCC , which is -2.89 kcal/mol

Kindly note the recorded solvation free energy, 298 K for C=CCC , which is -1.28 kcal/mol

Kindly note the recorded solvation free energy, 298 K for Cc1ccccc1 , which is -4.48 kcal/mol

Kindly note the recorded solvation free energy, 298 K for C1CCCCC1 , which is -2.65 kcal/mol

Kindly note the recorded solvation free energy, 298 K for C1=CCCCC1 , which is -3.21 kcal/mol

###

For each entry below, report its solvation free energy, 298 K value.
- experiment summary: solvent given as SMILES
- settings: in CC(C)CC(C)(C)C
Hi! Could you send only the number? It should be in kcal/mol, unit omitted.

Kindly note the recorded solvation free energy, 298 K for O=C1c2ccccc2C(=O)c2c(Cl)cccc21 , which is -12

Kindly note the recorded solvation free energy, 298 K for Cc1ccc(C)cc1 , which is -5.39

Kindly note the recorded solvation free energy, 298 K for C#CC , which is -1.66

Kindly note the recorded solvation free energy, 298 K for O=O , which is 0.51

Kindly note the recorded solvation free energy, 298 K for c1ccccc1 , which is -3.95

Kindly note the recorded solvation free energy, 298 K for Cc1cccc(C)n1 , which is -5.29

Kindly note the recorded solvation free energy, 298 K for Cc1ccc(N)cc1 , which is -6.29

###

- experiment summary: solvent given as SMILES
- settings: in CCCCCC
Lab note: anything with solvation free energy, 298 K at or over -5 kcal/mol counts as rule met; the rest go in rule not met.

Decide: is the reported value of solvation free energy, 298 K for CCOc1ccccc1 equal to or greater than -5 kcal/mol?
rule not met

Decide: is the reported value of solvation free energy, 298 K for COC(=O)c1ccc(O)cc1 equal to or greater than -5 kcal/mol?
rule not met

Decide: is the reported value of solvation free energy, 298 K for Clc1ccccc1Cl equal to or greater than -5 kcal/mol?
rule not met

Decide: is the reported value of solvation free energy, 298 K for O=[N+]([O-])c1cccc(O)c1 equal to or greater than -5 kcal/mol?
rule not met

Decide: is the reported value of solvation free energy, 298 K for Cc1cc(C)cc(O)c1 equal to or greater than -5 kcal/mol?
rule not met

Decide: is the reported value of solvation free energy, 298 K for CCCC#N equal to or greater than -5 kcal/mol?
rule met

Decide: is the reported value of solvation free energy, 298 K for O=[N+]([O-])c1cc(Cl)ccc1Cl equal to or greater than -5 kcal/mol?
rule not met

Decide: is the reported value of solvation free energy, 298 K for CN equal to or greater than -5 kcal/mol?
rule met

Decide: is the reported value of solvation free energy, 298 K for C=CCC equal to or greater than -5 kcal/mol?
rule met

Decide: is the reported value of solvation free energy, 298 K for CNC equal to or greater than -5 kcal/mol?
rule met

Decide: is the reported value of solvation free energy, 298 K for c1ccccc1 equal to or greater than -5 kcal/mol?
rule met

Decide: is the reported value of solvation free energy, 298 K for CC(C)(C)Cl equal to or greater than -5 kcal/mol?
rule met

Decide: is the reported value of solvation free energy, 298 K for Clc1ccccc1 equal to or greater than -5 kcal/mol?
rule not met

Decide: is the reported value of solvation free energy, 298 K for c1ccc2c(c1)-c1cccc3cccc-2c13 equal to or greater than -5 kcal/mol?
rule not met

Decide: is the reported value of solvation free energy, 298 K for Cc1ccc(N)cc1 equal to or greater than -5 kcal/mol?
rule not met

Decide: is the reported value of solvation free energy, 298 K for O=C(C(=O)c1ccccc1)c1ccccc1 equal to or greater than -5 kcal/mol?
rule not met

Decide: is the reported value of solvation free energy, 298 K for II equal to or greater than -5 kcal/mol?
rule met

Decide: is the reported value of solvation free energy, 298 K for FC(Cl)(Cl)C(F)(Cl)Cl equal to or greater than -5 kcal/mol?
rule met

Decide: is the reported value of solvation free energy, 298 K for CC(=O)CC(=O)c1ccccc1 equal to or greater than -5 kcal/mol?
rule not met

Decide: is the reported value of solvation free energy, 298 K for C1CCCC1 equal to or greater than -5 kcal/mol?
rule met

Decide: is the reported value of solvation free energy, 298 K for CCC(CC)(CC)CC equal to or greater than -5 kcal/mol?
rule not met

Decide: is the reported value of solvation free energy, 298 K for O=C1c2ccccc2C(=O)c2c(Cl)cccc21 equal to or greater than -5 kcal/mol?
rule not met

Decide: is the reported value of solvation free energy, 298 K for COC equal to or greater than -5 kcal/mol?
rule met

Decide: is the reported value of solvation free energy, 298 K for C1CCCCC1 equal to or greater than -5 kcal/mol?
rule met

Decide: is the reported value of solvation free energy, 298 K for Cc1ccccc1 equal to or greater than -5 kcal/mol?
rule met

Decide: is the reported value of solvation free energy, 298 K for CCCCCC(C)=O equal to or greater than -5 kcal/mol?
rule not met
